The reported measurements were obtained from paper PMC11249646.

- protocol-text: In vitro ADME: solubility
- Type: physicochemical
- recorded-conditions: read-out: Solubility
Mark MET for reported solubility of 9 µg/mL or greater; mark NOT MET for anything smaller.

In plain terms: is recorded solubility at least 9 µg/mL for O=C(c1cccc(OCc2ccccc2)c1)c1no[n+]([O-])c1C(=O)c1cccc(OCc2ccccc2)c1 ?
NOT MET

Reported solubility reaches at least 9 µg/mL for O=C(O)C(F)(F)F.O=C(c1cccs1)c1no[n+]([O-])c1C(=O)c1cccs1 ?
MET

Has COc1ccccc1C(=O)c1no[n+]([O-])c1C(=O)c1ccccc1OC.O=C(O)C(F)(F)F a recorded solubility greater than or equal to 9 µg/mL?
MET

Form field: solubility at least 9 µg/mL? Entry: O=C(c1ccc(F)cc1)c1no[n+]([O-])c1C(=O)c1ccc(F)cc1
MET

Evaluate Cc1ccc(C(=O)c2no[n+]([O-])c2C(=O)c2ccc(C)cc2)cc1.O=C(O)C(F)(F)F : solubility at minimum 9 µg/mL?
MET

Determine whether measured solubility meets or exceeds 9 µg/mL for O=C(c1cccs1)c1no[n+]([O-])c1CO
MET

Hi, just wondering whether Cc1ccccc1C(=O)c1no[n+]([O-])c1C(=O)c1ccccc1C.O=C(O)C(F)(F)F shows solubility of 9 µg/mL or higher.
NOT MET

Please check the record O=C(c1ccccc1)c1no[n+]([O-])c1C(=O)c1ccccc1 and state if its solubility is at or above 9 µg/mL.
MET

* * *

- experimental-target: GST-CIB1 : F-scrambled peptide (Homo sapiens, UniProt Q99828)
- Construct: made in house; host or cells: BL-21 plus RIL cells (E. coli)
- Sequence (Q99828 whole entry): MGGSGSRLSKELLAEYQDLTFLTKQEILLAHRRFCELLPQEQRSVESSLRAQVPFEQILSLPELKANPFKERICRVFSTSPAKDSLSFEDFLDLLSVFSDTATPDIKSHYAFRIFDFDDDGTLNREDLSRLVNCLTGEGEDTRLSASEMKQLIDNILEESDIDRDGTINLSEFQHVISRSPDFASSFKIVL
- protocol-text: FP scrambled-peptide counter screen, 1536-well format
- Type: binding
- recorded-conditions: counterscreen
Rule: COUNTERSCREEN Efficacy (%) under -10% gives not satisfied, otherwise satisfied.

Given O=C(O)C(F)(F)F.O=C1CCCC2=C1C(c1cccnc1Br)N=C(Nc1nc3ccccc3o1)N2 (stereo not shown) [NCGC00189281-01] , state whether its COUNTERSCREEN Efficacy (%) is at least -10%.
satisfied

Identify whether the reported COUNTERSCREEN Efficacy (%) of the following compound is -10% or greater: O=C(O)C(F)(F)F.O=C1Nc2ccccc2/C1=N/NC(=S)Nc1c(F)cc(F)cc1F [NCGC00229537-01]
not satisfied

Does the reported COUNTERSCREEN Efficacy (%) for COc1cc([C@H]2Oc3cc([C@H]4Oc5cc(O)cc(O)c5C(=O)[C@@H]4O)ccc3O[C@@H]2CO)ccc1O [NCGC00091057-05] fall at or above the -10% mark?
satisfied

Evaluate O=C(O)C(F)(F)F.O=C1CCCC2=C1C1(CCCOC1)N=C(Nc1nc3ccccc3o1)N2 (stereo not shown) [NCGC00188575-01] : COUNTERSCREEN Efficacy (%) at minimum -10%?
not satisfied

Would you say C[C@H]1COC2=C1C(=O)C(=O)c1c2ccc2c1CCCC2(C)C [NCGC00163650-02] shows COUNTERSCREEN Efficacy (%) at minimum -10%?
not satisfied

Given the entry CN1CCN(c2ccc(-c3cc(O)c4ncccc4c3)cc2)CC1.O=C(O)C(F)(F)F [NCGC00183803-01] , answer whether its COUNTERSCREEN Efficacy (%) meets or surpasses -10%.
not satisfied

Confirm if COUNTERSCREEN Efficacy (%) reported for the compound CC1CCC2(C1)N=C(Nc1nc3ccccc3o1)NC1=C2C(=O)CCC1.O=C(O)C(F)(F)F (stereo not shown) [NCGC00188039-01] is -10% or above.
not satisfied
